target: JAK1 (Homo sapiens, UniProt P23458); construct: purchased Carna Biosciences; assay: JAK1 microfluidic kinase assay (Caliper EZ Reader II, FAM labeled peptide substrate); format: biochemical; settings: (5 nM), 1 mM ATP; Table 2; read-out: IC50 JAK1 (5 nM) (1 mM ATP)
Sequence (P23458 whole entry): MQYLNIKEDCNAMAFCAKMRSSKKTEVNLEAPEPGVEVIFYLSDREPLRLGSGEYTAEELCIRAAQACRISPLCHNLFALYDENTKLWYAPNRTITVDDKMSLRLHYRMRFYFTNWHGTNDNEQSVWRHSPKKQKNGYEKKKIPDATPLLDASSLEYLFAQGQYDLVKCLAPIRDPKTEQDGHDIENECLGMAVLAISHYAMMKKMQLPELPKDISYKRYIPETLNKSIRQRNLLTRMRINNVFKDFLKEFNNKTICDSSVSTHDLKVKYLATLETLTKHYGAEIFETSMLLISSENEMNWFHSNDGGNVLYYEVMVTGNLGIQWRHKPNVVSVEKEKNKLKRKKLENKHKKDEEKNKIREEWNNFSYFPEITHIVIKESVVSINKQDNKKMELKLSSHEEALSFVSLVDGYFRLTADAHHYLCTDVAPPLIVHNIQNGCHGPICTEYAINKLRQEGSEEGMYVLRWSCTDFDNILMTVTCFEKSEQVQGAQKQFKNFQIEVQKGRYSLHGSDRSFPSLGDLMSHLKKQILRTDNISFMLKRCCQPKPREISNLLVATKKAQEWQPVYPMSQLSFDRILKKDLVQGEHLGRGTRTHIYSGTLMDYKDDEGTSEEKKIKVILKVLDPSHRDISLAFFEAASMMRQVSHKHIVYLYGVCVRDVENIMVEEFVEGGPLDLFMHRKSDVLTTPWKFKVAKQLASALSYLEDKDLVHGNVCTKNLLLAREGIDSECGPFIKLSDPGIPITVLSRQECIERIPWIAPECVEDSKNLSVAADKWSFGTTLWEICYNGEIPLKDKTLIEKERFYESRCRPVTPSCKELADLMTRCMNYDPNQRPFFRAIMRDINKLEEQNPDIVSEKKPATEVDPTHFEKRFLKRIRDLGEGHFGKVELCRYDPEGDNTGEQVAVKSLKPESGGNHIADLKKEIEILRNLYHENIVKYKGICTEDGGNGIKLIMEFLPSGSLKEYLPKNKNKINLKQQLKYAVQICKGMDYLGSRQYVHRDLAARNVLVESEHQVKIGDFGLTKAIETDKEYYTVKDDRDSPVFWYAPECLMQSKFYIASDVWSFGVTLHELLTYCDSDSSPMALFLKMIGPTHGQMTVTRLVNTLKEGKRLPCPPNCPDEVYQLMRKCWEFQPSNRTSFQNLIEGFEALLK
readout_name: IC50 (nM)
Numbers only, in nM.

Examples with their reported IC50 follow.
INSERT INTO results (compound, subject_of_test, readout_name, unit_abbrev, data_value) VALUES
  ('Cc1cnc(Nc2cnn(C3CC3)c2)nc1-c1ccc2c(c1)CC(C#N)CO2 (stereo not drawn)', 'JAK1 (Homo sapiens, UniProt P23458)', 'IC50', 'nM', 136),
  ('Cc1cnc(Nc2cnn(C3CC3)c2)nc1-c1cc(F)c(OCC2(C#N)CC2)c(F)c1', 'JAK1 (Homo sapiens, UniProt P23458)', 'IC50', 'nM', 124),
  ('Cc1cnc(Nc2cnn(C)c2)nc1-c1ccc(OCCC#N)cc1', 'JAK1 (Homo sapiens, UniProt P23458)', 'IC50', 'nM', 19.6),
  ('Cc1cnc(Nc2cnn(C)c2)nc1-c1ccc(OCCC#N)c(F)c1', 'JAK1 (Homo sapiens, UniProt P23458)', 'IC50', 'nM', 19.6),
  ('Cc1cnc(Nc2cnn(C3CCN(C(=O)C4(C)CC4)CC3)c2)nc1-c1ccc(OCC2(C#N)CC2)c(F)c1', 'JAK1 (Homo sapiens, UniProt P23458)', 'IC50', 'nM', 7.06),
  ('Cc1cnc(Nc2cnn(C)c2)nc1-c1ccc(OCC(C)(C)C#N)cc1', 'JAK1 (Homo sapiens, UniProt P23458)', 'IC50', 'nM', 7.49),
  ('Cc1cnc(Nc2cnn(C3CC3)c2)nc1-c1ccc(NCC2(C#N)CC2)cc1', 'JAK1 (Homo sapiens, UniProt P23458)', 'IC50', 'nM', 19.2);

Input: May I ask what IC50 has been recorded for Cc1cnc(Nc2cnn(C3CC3)c2)nc1-c1ccc(OCC2(C#N)CCC2)cc1 ?
Output: 8.86

---

target: JAK1 (Homo sapiens, UniProt P23458); construct: purchased Carna Biosciences; assay: JAK1 microfluidic kinase assay (Caliper EZ Reader II, FAM labeled peptide substrate); assay type: biochemical; conditions: (5 nM), 1 mM ATP; Table 2; read-out: IC50 JAK1 (5 nM) (1 mM ATP)
Label fulfilled when IC50 is strictly below 30 nM; at or above that, label not fulfilled.

Some solved entries appear below for comparison.
INSERT INTO measurements (compound, assigned_category) VALUES
  ('Cc1cnc(Nc2cnn(C(C)C(F)(F)F)c2)nc1-c1ccc(OCC(C)(C)C#N)c(F)c1 (centres unmarked)', 'fulfilled'),
  ('CC(C)(C#N)COc1ccc(-c2nc(Nc3cnn(C4CCOCC4)c3)ncc2F)cc1F', 'not fulfilled');

Input: Answer whether the compound CC(C)(C#N)COc1ccc(-c2nc(Nc3cnn(C4CCOCC4)c3)ncc2Cl)cc1F has IC50 strictly less than 30 nM
Output: fulfilled

---

target: TYK2 (Homo sapiens); construct: purchased Carna Biosciences; assay: TYK2 microfluidic kinase assay (Caliper EZ Reader II, FAM labeled peptide substrate); format: biochemical; conditions: (2.5 nM), 1 mM ATP; Table 2; read-out: IC50 TYK2 (2.5 nM) (1 mM ATP)
Sequence (P29597 whole entry): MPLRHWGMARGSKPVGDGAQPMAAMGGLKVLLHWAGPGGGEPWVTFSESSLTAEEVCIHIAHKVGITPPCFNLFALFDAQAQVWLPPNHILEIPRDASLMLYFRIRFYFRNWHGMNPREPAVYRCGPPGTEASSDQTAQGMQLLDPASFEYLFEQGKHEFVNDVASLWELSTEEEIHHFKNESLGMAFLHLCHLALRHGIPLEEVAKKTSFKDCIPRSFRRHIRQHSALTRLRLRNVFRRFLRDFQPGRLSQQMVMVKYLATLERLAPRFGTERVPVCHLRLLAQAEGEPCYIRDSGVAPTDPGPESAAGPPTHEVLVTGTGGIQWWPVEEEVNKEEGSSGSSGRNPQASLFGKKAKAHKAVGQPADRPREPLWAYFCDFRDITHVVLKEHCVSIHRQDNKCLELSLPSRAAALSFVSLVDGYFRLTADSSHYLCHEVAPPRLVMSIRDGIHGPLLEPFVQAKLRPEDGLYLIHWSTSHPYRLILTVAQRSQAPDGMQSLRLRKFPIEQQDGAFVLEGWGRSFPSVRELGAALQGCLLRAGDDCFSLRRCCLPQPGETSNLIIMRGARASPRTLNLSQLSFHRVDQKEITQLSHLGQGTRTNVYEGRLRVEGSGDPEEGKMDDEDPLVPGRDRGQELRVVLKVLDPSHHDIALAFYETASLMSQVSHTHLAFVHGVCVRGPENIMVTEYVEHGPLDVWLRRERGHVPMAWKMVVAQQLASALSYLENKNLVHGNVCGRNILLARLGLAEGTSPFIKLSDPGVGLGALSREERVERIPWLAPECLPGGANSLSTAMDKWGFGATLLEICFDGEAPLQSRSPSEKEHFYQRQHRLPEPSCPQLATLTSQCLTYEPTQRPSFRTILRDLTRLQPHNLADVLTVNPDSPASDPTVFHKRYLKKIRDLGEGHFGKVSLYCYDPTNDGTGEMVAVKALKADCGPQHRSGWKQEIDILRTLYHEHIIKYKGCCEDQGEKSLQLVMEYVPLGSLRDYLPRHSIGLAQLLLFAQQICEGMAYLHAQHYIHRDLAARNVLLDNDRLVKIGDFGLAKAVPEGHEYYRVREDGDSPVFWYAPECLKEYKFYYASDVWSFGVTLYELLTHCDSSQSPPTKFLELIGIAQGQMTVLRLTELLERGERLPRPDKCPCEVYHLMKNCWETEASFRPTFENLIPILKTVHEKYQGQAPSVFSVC
Record form. Attribute: pIC50. Fill in for each entry.
Answers are plain numbers, as −log10 of the molar value.

INSERT INTO assay_data (smiles_structure, data_value) VALUES
  ('Cc1cnc(Nc2cnn(C)c2)nc1-c1ccc(OCCC#N)cc1', 7.19);

Give me pIC50 for each of these molecules, listed below.
1. Cc1cnc(Nc2cnn(C3CC3)c2)nc1-c1ccc(OCC(C)(C)C#N)cc1
2. Cc1cnc(Nc2cnn(C3CC3)c2)nc1-c1ccc(OCC2(C#N)CCC2)cc1

Output:
7.92
7.66

Give me pIC50 for each of these molecules, listed below.
1. Cc1cnc(Nc2cnn(C3CC3)c2)nc1-c1ccc(NCC2(C#N)CC2)cc1
2. Cc1cnc(Nc2cnn(C)c2)nc1-c1ccc(OCC(C)(C)C#N)cc1
3. Cc1cnc(Nc2cnn(C3CCN(C)CC3)c2)nc1-c1ccc(NCC2(C#N)CC2)cc1
4. Cc1cnc(Nc2cnn(C)c2)nc1-c1ccc(OCCC#N)c(F)c1

Output:
1: 6.99; 2: 8.58; 3: 7.01; 4: 7.19

---

target: JAK1 (Homo sapiens, UniProt P23458); construct: purchased Carna Biosciences; assay: JAK1 microfluidic kinase assay (Caliper EZ Reader II, FAM labeled peptide substrate); assay type: biochemical; conditions: (5 nM), 1 mM ATP; Table 2; read-out: IC50 JAK1 (5 nM) (1 mM ATP)
Record form. Attribute: pIC50. Fill in for each entry.
Numbers only, as −log10 of the molar value.

Examples with their reported pIC50 follow.
INSERT INTO results (smiles_structure, readout_name, data_value) VALUES
  ('Cc1cnc(Nc2cnn(C3CC3)c2)nc1-c1ccc(OCC2(C#N)CC2)c(F)c1', 'pIC50', 8.48),
  ('N#CC1(COc2ccc(-c3nc(Nc4cnn(C5CCOCC5)c4)ncc3F)cc2F)CC1', 'pIC50', 6.87),
  ('Cn1cc(Nc2ncc(Cl)c(-c3ccc(OCC(C)(C)C#N)cc3)n2)cn1', 'pIC50', 7.85),
  ('CN(CC(C)(C)C#N)c1ccc(-c2nc(Nc3cnn(C4CC4)c3)ncc2Cl)cc1F', 'pIC50', 6.99),
  ('N#CC1(COc2ccc(-c3nc(Nc4cnn(C5CC5)c4)ncc3F)cc2F)CC1', 'pIC50', 7.07),
  ('Cc1cnc(Nc2cnn(C3CC3)c2)nc1-c1ccc(N(C)CC(C)(C)C#N)c(F)c1', 'pIC50', 7.14),
  ('Cc1cnc(Nc2cnn(C3CC3)c2)nc1-c1ccc(NCC(C)(C)C#N)c(F)c1', 'pIC50', 7.84),
  ('Cc1cnc(Nc2cnn(C3CCOCC3)c2)nc1-c1ccc(OCC(C)(C)C#N)cc1', 'pIC50', 8.24),
  ('N#CC1(COc2ccc(-c3nc(Nc4cnn(C5CC5)c4)ncc3Cl)cc2F)CC1', 'pIC50', 8.26),
  ('Cc1cnc(Nc2cnn(C3CCOCC3)c2)nc1-c1ccc(OCC2(C#N)CC2)nc1', 'pIC50', 6.70);

We next turn to a different compound, shown below.
Input: May I ask what pIC50 has been recorded for Cc1cnc(Nc2cnn(C3CCOCC3)c2)nc1-c1ccc(OCC2(C#N)CC2)c(F)c1 ?
Output: 8.13

---

target: JAK1 (Homo sapiens, UniProt P23458); construct: purchased Carna Biosciences; assay: JAK1 microfluidic kinase assay (Caliper EZ Reader II, FAM labeled peptide substrate); assay type: biochemical; conditions: (5 nM), 1 mM ATP; Table 2; read-out: IC50 JAK1 (5 nM) (1 mM ATP)
Record form. Attribute: IC50. Fill in for each entry.

INSERT INTO assay_data (compound, subject_of_test, data_value) VALUES
  ('Cc1cnc(Nc2cnn(CC#N)c2)nc1-c1ccc(OCC(C)(C)C#N)c(F)c1 [Example 30]', 'JAK1 (Homo sapiens, UniProt P23458)', '< 2.5 nM'),
  ('COCCn1cc(Nc2ncc(C)c(-c3ccc(OCC(C)(C)C#N)c(F)c3)n2)cn1 [Example 19]', 'JAK1 (Homo sapiens, UniProt P23458)', '< 2.5 nM');

We next turn to a different compound, shown below.
Input: May I ask what IC50 has been recorded for Cc1cnc(Nc2cnn(C3CCN(C)CC3)c2)nc1-c1ccc(OCC2(C#N)CC2)c(F)c1 [Example 20] ?
Output: < 2.5 nM
